system: MDA-MB-231 breast; experiment: NCI-60 one-dose screen, 48 h; conditions: 10 µM unless noted
The panel holds about 83,000 compounds, 20% with a hit somewhere; the sample as a whole holds those more often. The source made the active and inactive calls. Rule for the calls: active = growth percent below 10; inactive = the rest.
Can you answer with just one of these options? yes for active, no for inactive

compound=O=S(=O)(NCCCNc1nccc(-c2[nH]c(-c3ccccc3)nc2-c2ccc(Cl)c(O)c2)n1)c1cccc2ccccc12 qualitative_label=no
compound=O=C(NNc1nc2cc(F)ccc2n2c(CO)ccc12)c1cnccn1 qualitative_label=no
compound="C[C@@H]1C[C@H]2C(=O)O[C@@H](C)C(NC(=O)[C@H](Cc3cc(F)cc(F)c3)NC(=O)Nc3ccc(Cl)cc3F)C(=O)N3CCC[C@H]3C(=O)N3CCCC[C@H]3C(=O)N[C@@H](CO)C(=O)N2C1 (some centres undefined)" qualitative_label=no

Assay result, entry `Cc1nn(-c2ccccc2)c2ncnc(N/N=C/c3ccccc3)c12` — outcome?
no

Item: `CC(C)C[C@@H]1N[C@@]2(C(=O)Nc3ccccc32)[C@@H](c2ccc(F)cc2)[C@@H]1C(=O)c1ccc(O)cc1`
no

Item: `Cc1ccc2c(c1)C(=O)/C(=C/c1cccc(F)c1)S2`
no

Item: `N#Cc1c(NC(=O)c2cccc(C(F)(F)F)c2F)sc2c1CCC(=O)C2`
yes

Item: COc1cc2nc(Cl)nc(Nc3cccc(C4=Nc5c(N)nc(N)nc5NC(c5ccc(F)cc5)C4)c3)c2cc1OC (centres undefined)
no

Item: `CCN(CC)CCn1c2ccc(O)cc2c2sc3cc(OC)ccc3c(=O)c21`
no

Item: CCO/C=N/C1=C(C#N)C(c2ccc(F)cc2)c2sc3c(C)cccc3c2O1 (centres undefined)
no

Item: `Cc1ccc(NC(=O)c2ccc(CN3CCOCC3)c(C(F)(F)F)c2)cc1Oc1ccc(-c2[nH]nc3ncnc(N)c23)cc1`
no

Item: CC1=CC(=O)C2=C(C)CC(OC(=O)CCc3ccccc3)[C@@H]3[C@H](OC(=O)[C@@H]3C)[C@@H]12 (some centres undefined)
no

Item: `CCCCCc1ccc(S(=O)(=O)Nc2cc(-c3csc(NC(=O)CN4CCN(C)CC4)n3)ccc2N2CCN(C)CC2)cc1`
yes

Item: COC(=O)C(Cc1ccccc1)Nc1nc(NC(Cc2ccccc2)C(=O)OC)nc(N2CCOCC2)n1 (centres undefined)
no
